# MEASURED_ON: biotinylated (prokaryotic) IL-6 (Homo sapiens, UniProt P05231)
# Sequence (P05231 30-212): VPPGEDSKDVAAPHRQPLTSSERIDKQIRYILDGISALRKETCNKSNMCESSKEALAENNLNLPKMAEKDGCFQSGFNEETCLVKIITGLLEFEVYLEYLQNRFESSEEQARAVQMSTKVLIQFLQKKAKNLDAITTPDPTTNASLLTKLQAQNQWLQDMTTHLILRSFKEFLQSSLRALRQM
# MEASUREMENT_NOTES: Surface plasmon resonance (Biacore), biotinylated IL-6 captured on streptavidin sensor chip
# Format: binding
# CONDITIONS: purified Fab
// KA lookup, one value per entry

MOLECULE: 18C9: antagonistic IL-6-specific Fab clone from immunized llama (antibody, listed as Lama glama, V domains shown) VH: EVQLVESGGGLVQPGGSLRLSCAASGFTFSRNAMSWVRQAPGKGLEWVSAINSGGGSTSYADSVKGRFTISRDNAKNTLYLQMNSLKPEDTAVYYCAKEGYTGWKDPMYDYWGQGTQVTVSS VL: LNFMLTQPSALSVTLGQTAKITCQGGSLGSRYAHWYQQKPGQAPVLVIYDDDSRPSGIPERFSGSSSGGRATLTISGAQAEDDGDYYCQSADSSGNASVFGGGTHLTVLG
READOUT_UNITS: M⁻¹
KA: 4.67e+07
//
MOLECULE: 18C7: antagonistic IL-6-specific Fab clone from immunized llama (antibody, listed as Lama glama, V domains shown) VH: EVQLVESGPGLVKPSQTLSLTCTVSGGSITASFDAWSWIRQPPGKGLEWMGVIAYDGSTYYSPSLKSRTSISRDTSKNQFSLQLSSVTPEDTAVYYCARKSSWLIGYGMDYWGKGTLVTVSS VL: QAGLTQPSALSVTLGQTAKITCQGGSLGSSYAHWYQQKPGQAPVLVIYDDDSRPSGIPERFSGSSSGGRATLTISGAQAEDEGDYYCQSADSSGNAAVFGGGTHLTVLG
READOUT_UNITS: M⁻¹
KA: 5.7e+07
//
MOLECULE: 20A4: antagonistic IL-6-specific Fab clone, parental of 68F2 (antibody, listed as Lama glama, V domains shown) VH: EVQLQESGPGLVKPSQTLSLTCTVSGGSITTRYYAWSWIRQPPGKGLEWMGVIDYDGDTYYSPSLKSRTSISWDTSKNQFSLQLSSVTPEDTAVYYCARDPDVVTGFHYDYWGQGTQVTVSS VL: ALNFMLTQPPSVSGTLGKTVTISCAGTSSDIGGYNYVSWYQQLPGTAPKLLIHRVSTRASGIPDRFSGSKSGNTASLTISGLRSEDEANYYCASYRNFNNAVFGGGTQLTVLG
READOUT_UNITS: M⁻¹
KA: 1.72e+08
//
MOLECULE: 18C11: antagonistic IL-6-specific Fab clone from immunized llama (antibody, listed as Lama glama, V domains shown) VH: EVQLVESGGGLVQPGGSLRLSCAASGFTFSSYAMSWVRQAPGKGLEWVSAINSGGGSTSYADSVKGRFTISRDNAKNTLYLQMNSLKPEDTAVYYCAKEGDTGWKDPMYDYWGQGTQVTVSS VL: QSVVTQPSALSVTLGQTAKITCQGGGLRSSYAHWYQQKPGQAPVLVIYDDDSRPSGIPERFSGSSSGGRATLTISGAQAEDEGDYYCQSADSSGNAAVFGGGTHLTVLG
READOUT_UNITS: M⁻¹
KA: 7.05e+07
